Values compiled from paper PMC6273400.

test: Pharmacokinetics in rat plasma after intragastric administration, normoxia (UPLC-MS/MS); type: in vivo, Sprague-Dawley rats; details: PF in TPG (TPG dose with PF 80 mg/kg), intragastric, mean ± SD, n = 6
measurement.label: clearance (L/min/kg)
Answers are plain numbers, in L/min/kg.

Query :: Any idea what clearance was measured for C[C@@]12C[C@@]3(O)O[C@@H](O1)[C@]1(COC(=O)c4ccccc4)[C@H]3C[C@@]12O[C@@H]1O[C@H](CO)[C@@H](O)[C@H](O)[C@H]1O [PF, paeoniflorin] ?
Result :: 1.7

---

experiment: Pharmacokinetics in rat plasma after intragastric administration, normoxia (UPLC-MS/MS); assay type: in vivo, Sprague-Dawley rats; conditions: AF alone, 14 mg/kg intragastric, normoxia, mean ± SD, n = 6
measurement.label: clearance (L/h/kg)
Give bare numbers, in L/h/kg.

Query :: Any idea what clearance was measured for CC12CC(O)C3CC1(OC1OC(CO)C(O)C(O)C1O)C3(COC(=O)c1ccccc1)C(=O)O2 (stereo not shown) [AF, albiflorin] ?
Result :: 102
